Here, each record is paired with measured Cell LXRα efficacy data.
Target: Gal4 DNA binding domain fused to the LBD of LXRα in HEK293 cells (Homo sapiens (Human), UniProt Q13133)
Sequence (Q13133 209-447): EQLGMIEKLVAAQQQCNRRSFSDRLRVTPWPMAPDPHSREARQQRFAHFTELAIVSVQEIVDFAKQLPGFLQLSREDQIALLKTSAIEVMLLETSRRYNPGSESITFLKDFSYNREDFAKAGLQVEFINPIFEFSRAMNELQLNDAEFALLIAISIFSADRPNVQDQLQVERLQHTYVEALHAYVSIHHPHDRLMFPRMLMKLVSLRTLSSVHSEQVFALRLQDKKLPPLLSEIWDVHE
Test: LXR luciferase transcriptional reporter gene assay, agonist mode, LXRα
Assay type: cell-based

- molecule: "CC(O)c1nc(N2CCN(c3ccc(F)c(S(C)(=O)=O)c3)C[C@H]2C(C)C)ncc1C(F)(F)F (some centres unmarked)"
  Cell LXRα efficacy: "165 (89) %"
- molecule: "CC(C)[C@H]1CN(c2ccc(CO)c(S(C)(=O)=O)c2)CCN1C[C@H]1CC[C@H](C(F)(F)F)OC1 (single isomer, unassigned)"
  Cell LXRα efficacy: "122 (63) %"
- molecule: "CC1(c2ccccc2)CN(c2cccc(S(C)(=O)=O)c2)CCN1Cc1ccc(C(F)(F)F)nc1 (centres unmarked)"
  Cell LXRα efficacy: "3237 (12) %"
- molecule: "CC(O)c1cnc(N2CCN(c3ccc(F)c(S(C)(=O)=O)c3)C[C@H]2C(C)C)nc1C(F)(F)F (mixture of isomers)"
  Cell LXRα efficacy: "969 (46) %"
- molecule: "COC(=O)c1cnc(N2CCN(c3ccc(F)c(S(C)(=O)=O)c3)CC2C(C)(C)C)nc1C(F)(F)F (centres unmarked)"
  Cell LXRα efficacy: "504 (46) %"
- molecule: "CC(C)[C@@H]1CN(c2ccc(F)c(S(C)(=O)=O)c2)CCN1c1ncc(CN2CCOCC2)c(C(F)(F)F)n1"
  Cell LXRα efficacy: "2592 (12) %"
- molecule: "CC(C)[C@@H]1CN(c2ccc(F)c(S(C)(=O)=O)c2)CCN1c1ccnc(OC(F)F)c1"
  Cell LXRα efficacy: "258 (99) %"
- molecule: "NS(=O)(=O)c1cccc(N2CCN(C[C@H]3CC[C@@H](C(F)F)CC3)[C@H](c3ccccc3)C2)c1 (single isomer, unassigned)"
  Cell LXRα efficacy: "9061 (8) %"
- molecule: "Cc1nc(N2CCN(c3ccc(F)c(S(C)(=O)=O)c3)C[C@H]2C(C)(C)O)ccc1C(F)(F)F"
  Cell LXRα efficacy: "13605 (107) %"
- molecule: "CNC(=O)c1cnc(N2CCN(c3ccc(F)c(S(C)(=O)=O)c3)C[C@H]2C(C)C)nc1C(F)(F)F"
  Cell LXRα efficacy: "5514 (29) %"
- molecule: "CC(C)[C@@H]1CN(c2cccc(S(C)(=O)=O)c2)CCN1c1ccc(C(F)(F)F)cn1"
  Cell LXRα efficacy: "138 (97) %"

###

Here, each record is paired with measured FRET LXRβ efficacy data.
Target: LXR β LBD protein (Homo sapiens (Human), UniProt P55055)
Sequence (P55055 222-460): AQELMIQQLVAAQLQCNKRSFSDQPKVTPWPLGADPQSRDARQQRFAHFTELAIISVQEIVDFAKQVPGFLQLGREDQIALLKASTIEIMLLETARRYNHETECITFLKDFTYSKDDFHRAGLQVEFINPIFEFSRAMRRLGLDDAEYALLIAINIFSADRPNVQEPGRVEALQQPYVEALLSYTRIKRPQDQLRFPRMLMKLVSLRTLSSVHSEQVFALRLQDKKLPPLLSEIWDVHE
Experiment: biochemical
Assay type: biochemical
Settings: agonist mode
reportedMetric: FRET LXRβ efficacy

- compound: "CS(=O)(=O)c1cccc(N2CCN(c3nccc(C(F)(F)F)n3)[C@H](c3ccc(F)cc3)C2)c1"
  studySystem: "LXR β LBD protein (Homo sapiens (Human), UniProt P55055)"
  reportedMetric: "FRET LXRβ efficacy"
  endpointValue: "62 (75) %"
- compound: "CC(C)(O)c1ccc(CN2CCN(c3cccc(S(C)(=O)=O)c3)C[C@@H]2c2ccccc2)cc1"
  studySystem: "LXR β LBD protein (Homo sapiens (Human), UniProt P55055)"
  reportedMetric: "FRET LXRβ efficacy"
  endpointValue: "1141 (33) %"
- compound: "CS(=O)(=O)c1cccc(N2CCN(Cc3ccc(C(F)(F)F)cc3)[C@@H](c3ccc(F)cc3)C2)c1"
  studySystem: "LXR β LBD protein (Homo sapiens (Human), UniProt P55055)"
  reportedMetric: "FRET LXRβ efficacy"
  endpointValue: "347 (45) %"
- compound: "CS(=O)(=O)c1cccc(N2CCN(Cc3ccc(C(F)(F)F)c(F)c3)[C@@H](c3ccccc3)C2)c1 (single isomer, unassigned)"
  studySystem: "LXR β LBD protein (Homo sapiens (Human), UniProt P55055)"
  reportedMetric: "FRET LXRβ efficacy"
  endpointValue: "411 (73) %"
- compound: "Cc1ccccc1[C@@H]1CN(c2cccc(S(C)(=O)=O)c2)CCN1Cc1ccc(C(F)(F)F)nc1 (single isomer, unassigned)"
  studySystem: "LXR β LBD protein (Homo sapiens (Human), UniProt P55055)"
  reportedMetric: "FRET LXRβ efficacy"
  endpointValue: "1524 (74) %"
